B1: Intersectin-1, residues 1156 to 1213; numbered along this chain, Q15811 (parent)
chain: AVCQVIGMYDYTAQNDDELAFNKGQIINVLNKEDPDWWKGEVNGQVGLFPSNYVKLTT

Variants of: B1
experiment.notes: abundance fitness (aPCA) (normalised: wild type 0, dead -1); higher = more abundant; growth selection in yeast, the domain comes from the species named
condition.summary: Homo sapiens
Use -0.3 as the dividing line for abundance fitness, with the line itself on the met side and lower values as not met.

q: Is abundance fitness at least -0.3? Consider `N15R`
a: met

q: Is abundance fitness at least -0.3? Consider `T57C`
a: met

q: Is abundance fitness at least -0.3? Consider `M8A`
a: met

q: Is abundance fitness at least -0.3? Consider `Q4R`
a: not met

q: Is abundance fitness at least -0.3? Consider `A20D`
a: met

q: Is abundance fitness at least -0.3? Consider `Q14L`
a: not met

q: Is abundance fitness at least -0.3? Consider `K23Y`
a: not met

q: Is abundance fitness at least -0.3? Consider `G47P`
a: not met

q: Is abundance fitness at least -0.3? Consider `I6E`
a: met

q: Is abundance fitness at least -0.3? Consider `T58R`
a: met

q: Is abundance fitness at least -0.3? Consider `I26D`
a: not met

q: Is abundance fitness at least -0.3? Consider `M8D`
a: not met

q: Is abundance fitness at least -0.3? Consider `D16P`
a: met

q: Is abundance fitness at least -0.3? Consider `Y11G`
a: not met

q: Is abundance fitness at least -0.3? Consider `V5W`
a: not met

q: Is abundance fitness at least -0.3? Consider `D10Q`
a: not met

q: Is abundance fitness at least -0.3? Consider `Q4H`
a: not met

q: Is abundance fitness at least -0.3? Consider `N28D`
a: met

q: Is abundance fitness at least -0.3? Consider `V54W`
a: not met

q: Is abundance fitness at least -0.3? Consider `V46Y`
a: not met

q: Is abundance fitness at least -0.3? Consider `E18W`
a: not met

q: Is abundance fitness at least -0.3? Consider `N31C`
a: met
